method: 4-week repeated-dose toxicity test in cynomolgus monkeys
Type: in vivo
condition-set: female, cynomolgus monkey, in vivo, 20 mg/kg
property-name: AUC(0-t)
Please give the number followed by its unit.

Challenge: Fill in AUC(0-t) for record Cc1cc(-c2c(-c3ccccc3)nc(N)n3nc(CO)nc23)cc(C(F)(F)F)n1 [ILB-2109]
Response given: 61000 ng·h/mL

###

method: SD rat absorption test (pharmacokinetics)
Format: in vivo, SD rats
condition-set: Sprague-Dawley, rat, plasma; female SD rats, single intravenous injection 2 mg/kg; read-out: steady-state apparent volume of distribution (Vdss)
property-name: Vd (L/kg)
Quick reminder: number only, in L/kg, skip the unit.

Challenge: Fill in Vd for record Cc1cc(-c2c(-c3ccccc3)nc(N)n3nc(CO)nc23)cc(C(F)(F)F)n1 [ILB-2109]
Response given: 0.526

###

method: SD rat absorption test (pharmacokinetics)
Format: in vivo, SD rats
condition-set: Sprague-Dawley, rat, plasma; female SD rats, single oral 120 mg/kg
Method: According to the Technical Guidelines for Non-clinical Pharmacokinetic Studies of Drugs and the results of in vitro metabolic species difference studies, liquid chromatography-tandem mass spectrometry (LC-MS/MS) was used in this pharmacokinetic study to fully verify the analytical method for the determination of ILB-2109 content in plasma (EDTA-K2 anticoagulation) of Sprague-Dawley rats and cynomolgus monkeys. The linear range of the method was 20.0~20000 nM. […]
property-name: AUC(0-t) (µM·h)
Quick reminder: number only, in µM·h, skip the unit.

Challenge: Fill in AUC(0-t) for record Cc1cc(-c2c(-c3ccccc3)nc(N)n3nc(CO)nc23)cc(C(F)(F)F)n1
Response given: 1560

###

method: Cynomolgus monkey absorption test (pharmacokinetics)
Type: in vivo, cynomolgus monkeys
condition-set: both sexes, cynomolgus monkey, plasma, po, 15 mg/kg, cynomolgus monkeys, oral 15 mg/kg twice a day for 7 days, Day 1; read-out: peak concentration (Cmax)
property-name: Cmax
Please give the number followed by its unit.

Challenge: Fill in Cmax for record Cc1cc(-c2c(-c3ccccc3)nc(N)n3nc(CO)nc23)cc(C(F)(F)F)n1 [ILB-2109]
Response given: 18.2 µM

###

method: Cynomolgus monkey absorption test (pharmacokinetics)
Type: in vivo, cynomolgus monkeys
condition-set: both sexes, cynomolgus monkey, plasma, po, 15 mg/kg, cynomolgus monkeys, oral 15 mg/kg twice a day for 7 days, Day 7; read-out: peak concentration (Cmax)
property-name: Cmax (µM)
Quick reminder: number only, in µM, skip the unit.

Challenge: Fill in Cmax for record Cc1cc(-c2c(-c3ccccc3)nc(N)n3nc(CO)nc23)cc(C(F)(F)F)n1
Response given: 28.3

###

method: 4-week repeated-dose toxicity test in cynomolgus monkeys
Type: in vivo
condition-set: male, cynomolgus monkey, in vivo, 20 mg/kg
property-name: AUC(0-t) (ng·h/mL)
Quick reminder: number only, in ng·h/mL, skip the unit.

Challenge: Fill in AUC(0-t) for record Cc1cc(-c2c(-c3ccccc3)nc(N)n3nc(CO)nc23)cc(C(F)(F)F)n1
Response given: 80200

###

method: Single-dose toxicity study in cynomolgus monkeys
condition-set: cynomolgus monkey, in vivo, po, single intragastric administration within 24 h, observed 14 days, read-out: maximum tolerated dose (MTD)
property-name: MTD at 14 days

Challenge: Fill in MTD at 14 days for record Cc1cc(-c2c(-c3ccccc3)nc(N)n3nc(CO)nc23)cc(C(F)(F)F)n1 [ILB-2109]
Response given: 1000 mg/kg
